System: endosomes of Jurkat lymphocytes
test_name: Endosome disruption in Jurkat lymphocytes: release of carboxyfluorescein from disulfide probe Compound 2, flow cytometry
measurement_conditions: Table 2; % of the effect of compound 1, calculated span of dose-response curve, ± standard deviation; Jurkat, 14 h
Non-standard residues stand in square brackets, D forms with d. Residues, ends and D or L forms follow the SMILES beside them. Aib = CC(C)(N)C(=O)O
reported_metric: Efficacy (% of 1) (%)
One number for each entry, in %.

>>> measured_number("CC(=O)NC(C)(C)C(=O)NC(C)(C)C(=O)NC(C)(C)C(=O)NC(C)(C)C(=O)N[C@@H](Cc1c[nH]c2ccccc12)C(=O)N[C@@H](Cc1ccc(O)cc1)C(=O)N[C@@H](C)C(=O)N[C@@H](Cc1c[nH]c2ccccc12)C(=O)N[C@@H](Cc1ccc(O)cc1)C(=O)N[C@@H](C)C(=O)N[C@@H](Cc1c[nH]c2ccccc12)C(=O)N[C@@H](Cc1ccc(O)cc1)C(=O)N1CCC[C@H]1C(=O)N1CCC[C@H]1C(=O)N[C@H](C(=O)N[C@H](C(N)=O)C(C)C)C(C)C [Compound 82] (Ac-[Aib][Aib][Aib][Aib]WYAWYAWYPPVV-NH2)")
85

Could you now look at the following compound, please?
What measured Efficacy (% of 1) is associated with CC(C)[C@H](NC(=O)[C@@H](NC(=O)[C@@H]1CCCN1C(=O)[C@@H]1CCCN1C(=O)[C@H](Cc1ccc(O)cc1)NC(=O)[C@H](Cc1c[nH]c2ccccc12)NC(=O)[C@H](C)NC(=O)[C@H](Cc1ccc(O)cc1)NC(=O)[C@H](Cc1c[nH]c2ccccc12)NC(=O)[C@H](C)NC(=O)[C@H](Cc1ccc(O)cc1)NC(=O)[C@H](Cc1c[nH]c2ccccc12)NC(=O)C(C)(C)NC(=O)C(C)(C)NC(=O)C(C)(C)NC(=O)C(C)(C)N)C(C)C)C(N)=O [Compound 80] (H-[Aib][Aib][Aib][Aib]WYAWYAWYPPVV-NH2) on endosomes of Jurkat lymphocytes?
113

###

Test system: endosomes of Jurkat lymphocytes
test_name: Endosome disruption in Jurkat lymphocytes: release of carboxyfluorescein from disulfide probe Compound 2, flow cytometry
measurement_conditions: read-out: Potency (EC50); Table 1; Jurkat lymphocytes, probe Compound 2 (2.5 μM), 14 hours; 95% confidence interval in neighbouring cell
Non-standard residues stand in square brackets, D forms with d. Residues, ends and D or L forms follow the SMILES beside them. Aib = CC(C)(N)C(=O)O
reported_metric: EC50 (µM)
Give bare numbers, in µM.

>>> measured_number("CC(C)[C@H](NC(=O)[C@@H]1CCCN1C(=O)[C@@H]1CCCN1C(=O)[C@H](Cc1c[nH]c2ccccc12)NC(=O)[C@H](Cc1ccc(O)cc1)NC(=O)[C@H](C)NC(=O)[C@H](Cc1c[nH]c2ccccc12)NC(=O)[C@H](Cc1c[nH]c2ccccc12)NC(=O)C(C)(C)NC(=O)C(C)(C)NC(=O)C(C)(C)NC(=O)C(C)(C)N)C(=O)N[C@@H](C)C(N)=O [Compound 43] (H-[Aib][Aib][Aib][Aib]WWAYWPPVA-NH2)")
10
>>> measured_number("CC(C)[C@H](NC(=O)[C@@H](NC(=O)[C@@H]1CCCN1C(=O)[C@H](C)NC(=O)[C@H](Cc1c[nH]c2ccccc12)NC(=O)[C@H](Cc1ccc(O)cc1)NC(=O)[C@H](C)NC(=O)[C@H](Cc1c[nH]c2ccccc12)NC(=O)[C@H](Cc1c[nH]c2ccccc12)NC(=O)C(C)(C)NC(=O)C(C)(C)NC(=O)C(C)(C)NC(=O)C(C)(C)N)C(C)C)C(N)=O [Compound 49] (H-[Aib][Aib][Aib][Aib]WWAYWAPVV-NH2)")
12

We now examine a further compound.
Could you share which EC50 value was measured for CC(C)[C@H](NC(=O)[C@@H](NC(=O)[C@@H]1CCCN1C(=O)[C@@H]1CCCN1C(=O)[C@H](Cc1c[nH]c2ccccc12)NC(=O)[C@H](Cc1ccc(O)cc1)NC(=O)[C@H](C)NC(=O)[C@H](Cc1c[nH]c2ccccc12)NC(=O)[C@H](Cc1c[nH]c2ccccc12)NC(=O)C(C)(C)NC(=O)C(C)(C)NC(=O)C(C)(C)NC(=O)C(C)(C)N)C(C)C)C(N)=O [Compound 44] (H-[Aib][Aib][Aib][Aib]WWAYWPPVV-NH2) ?
5.2

Reference source for all entries: patent US10766928B2
